# Tested on: adipocytes (3T3-L1) and myotubes (C2C12)
# test: Fatty acid oxidation screening and dose-response, cell type both or not stated
# Assay type: cell-based
# experimental-context: compound at its no-effect concentration with HMB 5 μM or leucine 0.5 mM
observed-property: synergy with HMB or leucine in stimulating fatty acid oxidation

- compound: "OC[C@@H](O)[C@@H](O)[C@H](O)[C@@H](O)CO [Sorbitol, reference compound]"
  observed-measurement: "no synergy"
- compound: "O[C@H]1[C@H](O)[C@@H](O)[C@H](O)[C@@H](O)[C@H]1O [Myo-inositol, reference compound]"
  observed-measurement: "no synergy"
